System: COLO-205 (Colorectal Carcinoma)
assayOverview: combination Emax (second highest fraction inhibited in the dose matrix, 72 h); higher = more inhibition; extreme values may be limits of the assay
propertyLabel: combination Emax

INSERT INTO assay_data (compound, reading) VALUES
  ('C=CCn1c(=O)c2cnc(Nc3ccc(N4CCN(C)CC4)cc3)nc2n1-c1cccc(C(C)(C)O)n1 [AZD1775] + O=C(c1cc(Cc2n[nH]c(=O)c3ccccc23)ccc1F)N1CCN(C(=O)C2CC2)CC1 [Olaparib] (first compound max 1 µM, partner max 10 µM)', 0.336),
  ('Cc1cc2ncnn2cc1Nc1ncc2c(n1)n(C1CCOCC1)c(=O)n2C [AZD7648] + C[C@@H]1COCCN1C2=NC(=NC(=C2)C3(CC3)[S@](=N)(=O)C)C4=C5C=CNC5=NC=C4 [AZD6738] (first compound max 10 µM, 7x7, partner max 10 µM)', 0.266);

====

In this section we review reported combination Emax values for a set of molecules.
System: MDA-MB-361 (Breast Carcinoma)
assayOverview: combination Emax (second highest fraction inhibited in the dose matrix, 72 h); higher = more inhibition; extreme values may be limits of the assay
propertyLabel: combination Emax

INSERT INTO assay_data (molecule, propertylabel, reading) VALUES
  ('CC1(C)CCC(CN2CCN(c3ccc(C(=O)NS(=O)(=O)c4ccc(NCC5CCOCC5)c([N+](=O)[O-])c4)c(Oc4cnc5[nH]ccc5c4)c3)CC2)=C(c2ccc(Cl)cc2)C1 [Venetoclax] + Cc1cc2ncnn2cc1Nc1ncc2c(n1)n(C1CCOCC1)c(=O)n2C [AZD7648] (first compound max 1 µM, 7x7, partner max 10 µM)', 'combination Emax', 0.44),
  ('CN(CCO)CC[C@H](CSc1ccccc1)Nc1ccc(S(=O)(=O)NC(=O)c2ccc(N3CCC([C@@H](O)c4ccccc4-c4ccc(Cl)cc4)CC3)cc2)cc1S(=O)(=O)C(F)(F)F [AZD4320] + Cc1cc2ncnn2cc1Nc1ncc2c(n1)n(C1CCOCC1)c(=O)n2C [AZD7648] (first compound max 1 µM, 7x7, partner max 10 µM)', 'combination Emax', 0.459),
  ('Cc1c2c(nn1C)CSCc1cc(n(C)n1)CSc1cc(c3ccccc3c1)OCCCc1c(C(=O)O)n(C)c3c-2c(Cl)ccc13 [AZD5991] + CC1(C)CCC(CN2CCN(c3ccc(C(=O)NS(=O)(=O)c4ccc(NCC5CCOCC5)c([N+](=O)[O-])c4)c(Oc4cnc5[nH]ccc5c4)c3)CC2)=C(c2ccc(Cl)cc2)C1 [Venetoclax] (first compound max 1 µM, 7x7, partner max 1 µM)', 'combination Emax', 0.889),
  ('CC(=O)c1c(C)c2cnc(Nc3ccc(N4CCNCC4)cn3)nc2n(C2CCCC2)c1=O [Palbociclib] + CC1(C)CCC(CN2CCN(c3ccc(C(=O)NS(=O)(=O)c4ccc(NCC5CCOCC5)c([N+](=O)[O-])c4)c(Oc4cnc5[nH]ccc5c4)c3)CC2)=C(c2ccc(Cl)cc2)C1 [Venetoclax] (first compound max 10 µM, 7x7, partner max 1 µM)', 'combination Emax', 0.163),
  ('C[C@@H]1COCCN1c1cc(C2([S@](C)(=N)=O)CC2)nc(-c2ccnc3[nH]ccc23)n1 [AZD6738] + O=C(c1cc(Cc2n[nH]c(=O)c3ccccc23)ccc1F)N1CCN(C(=O)C2CC2)CC1 [Olaparib] (first compound max 10 µM, 7x7, partner max 10 µM)', 'combination Emax', 0.836),
  ('NC1(C(=O)N[C@@H](CCO)c2ccc(Cl)cc2)CCN(c2ncnc3[nH]ccc23)CC1 [Capivasertib] + CCN(CCO)CCCOc1ccc2c(Nc3cc(CC(=O)Nc4cccc(F)c4)[nH]n3)ncnc2c1 [AZD2811] (first compound max 10 µM, 7x7, partner max 1 µM)', 'combination Emax', 0.718);

====

Tested on: Ramos-2G6-4C10 (Burkitt's Lymphoma)
assayOverview: combination Emax (second highest fraction inhibited in the dose matrix, 72 h); higher = more inhibition; extreme values may be limits of the assay
In this section we review reported combination Emax values for a set of compounds.
propertyLabel: combination Emax

INSERT INTO assay_data (compound, reading) VALUES
  ('COc1cccc(OCCCN)c1-c1cc(Nc2cnc(C#N)cn2)n[nH]1 [Prexasertib] + CCc1c2c(nc3ccc(O)cc13)-c1cc3c(c(=O)n1C2)COC(=O)[C@]3(O)CC [SN-38] (first compound max 1 µM, 7x7, partner max 0.3 µM)', 1),
  ('Cn1cnc2c(F)c(Nc3ccc(Br)cc3Cl)c(C(=O)NOCCO)cc21 [Selumetinib] + CC(C)n1c(=O)n(C)c2cnc3cc(F)c(-c4ccc(OCCCN5CCCCC5)nc4)cc3c21 [AZD1390] (first compound max 10 µM, 7x7, partner max 0.3 µM)', 0.137),
  ('Cc1cc2ncnn2cc1Nc1ncc2c(n1)n(C1CCOCC1)c(=O)n2C [AZD7648] + CCN(CCO)CCCOc1ccc2c(Nc3cc(CC(=O)Nc4cccc(F)c4)[nH]n3)ncnc2c1 [AZD2811] (first compound max 10 µM, 7x7, partner max 1 µM)', 0.789),
  ('C[C@@H](Nc1cc(F)cc(F)c1)c1cc(C(=O)N(C)C)cc2c(=O)cc(N3CCOCC3)oc12 [AZD8186] + C1CN(CCC1(C(=O)N[C@@H](CCO)C2=CC=C(C=C2)Cl)N)C3=NC=NC4=C3C=CN4 [AZD5363] (first compound max 10 µM, 7x7, partner max 10 µM)', 0.26),
  ('CN(C)CCCOc1ccc(-c2ccc3ncc4c(c3c2)n(C2CCOCC2)c(=O)n4C)cn1 [AZD0156] + C=CCn1c(=O)c2cnc(Nc3ccc(N4CCN(C)CC4)cc3)nc2n1-c1cccc(C(C)(C)O)n1 [AZD1775] (first compound max 1 µM, partner max 1 µM)', 0.995);

====

Tested on: HOS (Osteosarcoma)
assayOverview: combination Emax (second highest fraction inhibited in the dose matrix, 72 h); higher = more inhibition; extreme values may be limits of the assay
In this section we review reported combination Emax values for a set of compounds.
propertyLabel: combination Emax

INSERT INTO assay_data (compound, reading) VALUES
  ('Cn1cnc2c(F)c(Nc3ccc(Br)cc3Cl)c(C(=O)NOCCO)cc21 [Selumetinib] + CC(C)n1c(=O)n(C)c2cnc3cc(F)c(-c4ccc(OCCCN5CCCCC5)nc4)cc3c21 [AZD1390] (first compound max 10 µM, 7x7, partner max 0.3 µM)', 0.11),
  ('N#Cc1cnc(Nc2cc(NC[C@H]3CNCCO3)c(C(F)(F)F)cn2)cn1 [SRA737] + CCc1c2c(nc3ccc(O)cc13)-c1cc3c(c(=O)n1C2)COC(=O)[C@]3(O)CC [SN-38] (first compound max 10 µM, 7x7, partner max 0.3 µM)', 0.849),
  ('Cc1c2c(nn1C)CSCc1cc(n(C)n1)CSc1cc(c3ccccc3c1)OCCCc1c(C(=O)O)n(C)c3c-2c(Cl)ccc13 [AZD5991] + C1CN(CCC1(C(=O)N[C@@H](CCO)C2=CC=C(C=C2)Cl)N)C3=NC=NC4=C3C=CN4 [Capivasertib] (first compound max 1 µM, 7x7, partner max 3 µM)', 0.242),
  ('CN(CCO)CC[C@H](CSc1ccccc1)Nc1ccc(S(=O)(=O)NC(=O)c2ccc(N3CCC([C@@H](O)c4ccccc4-c4ccc(Cl)cc4)CC3)cc2)cc1S(=O)(=O)C(F)(F)F [AZD4320] + CN(C)CCCOc1ccc(-c2ccc3ncc4c(c3c2)n(C2CCOCC2)c(=O)n4C)cn1 [AZD0156] (first compound max 1 µM, 7x7, partner max 1 µM)', 0.0916);

====

In this section we review reported Bliss excess values for a set of compounds.
System: Ramos-2G6-4C10 (Burkitt's Lymphoma)
assayOverview: Bliss excess, mean over the matrix (fraction); higher = more synergy
propertyLabel: Bliss excess

INSERT INTO results (compound, reading) VALUES
  ('Cc1c2c(nn1C)CSCc1cc(n(C)n1)CSc1cc(c3ccccc3c1)OCCCc1c(C(=O)O)n(C)c3c-2c(Cl)ccc13 [AZD5991] + CC(=O)O[C@H]1C(=O)[C@@]2(C)[C@H]([C@H](OC(=O)c3ccccc3)[C@]3(O)C[C@H](OC(=O)[C@H](O)[C@@H](NC(=O)c4ccccc4)c4ccccc4)C(C)=C1C3(C)C)[C@]1(OC(C)=O)CO[C@@H]1C[C@@H]2O [Paclitaxel] (first compound max 1 µM, 7x7, partner max 3 µM)', -0.104),
  ('CCN(CCO)CCCOc1ccc2c(Nc3cc(CC(=O)Nc4cccc(F)c4)[nH]n3)ncnc2c1 [AZD2811] + C=CCn1c(=O)c2cnc(Nc3ccc(N4CCN(C)CC4)cc3)nc2n1-c1cccc(C(C)(C)O)n1 [AZD1775] (first compound max 1 µM, partner max 1 µM)', 0.0096),
  ('CC(=O)c1c(C)c2cnc(Nc3ccc(N4CCNCC4)cn3)nc2n(C2CCCC2)c1=O [Palbociclib] + Cn1cnc2c(F)c(Nc3ccc(Br)cc3Cl)c(C(=O)NOCCO)cc21 [Selumetinib] (first compound max 10 µM, 7x7, partner max 10 µM)', -0.023);

Every entry's value here was drawn from the supplement of paper PMC11061612.
